# System: NBD1
# ASSAY_TEXT: Aggregation analysis of NBD1 thermal stability by differential static light scattering (DSLS)
# Assay type: binding, Human
# SETTINGS: compound at 100 μM; ΔTagg versus DMSO control
MEASURED_QUANTITY: DSLS NBD1/3D Human Stability delta-T (° C.) @ 100 (μM)

Illustrative cases are given below, each with its answer.
INSERT INTO measurements (compound, result_value) VALUES
  ('Nc1cnc(-c2nnc(Cc3ccccc3)[nH]2)cc1Oc1ccc2[nH]ccc2c1 [Example 44]', 'B (4-8° C.)'),
  ('CS(=O)(=O)NC(=O)Cc1c(Oc2cccc(-c3nnc(Cc4ccccc4)[nH]3)c2)ccc2[nH]ccc12 [Example 56]', 'A (T ≥8° C.)'),
  ('Cc1c(Oc2ccc(F)c(-c3nc(C(C)(CO)c4ccccc4)c[nH]3)c2)c(F)cc2[nH]ccc12 (stereo not drawn) [Example 77]', 'B (4-8° C.)'),
  ('CC(c1ccccc1)c1c[nH]c(-c2cc(Oc3c(F)cc4[nH]ccc4c3CC3SC(=O)NC3=O)ccc2F)n1 (stereo not drawn) [Example 2]', 'B (4-8° C.)');

Next up:
Requested field: DSLS NBD1/3D Human Stability delta-T (° C.) @ 100 (μM). Item: CC(O)(c1ccccc1)c1cnc(-c2cccc(Oc3c(F)cc4[nH]ccc4c3CO)c2)[nH]1 (stereo not drawn) [Example 8]
A (T ≥8° C.)
